# TEST_NAME: Log P by HPLC on reversed phase columns (EEC directive 79/831 Annex V.A8)
# Assay type: physicochemical
# SETTINGS: method [a]; compounds of formula (I), Table 1.1
QUANTITY_KIND: LogP

Example compounds with recorded LogP:
# COMPOUND, QUANTITY_KIND, VALUE_MEASURED
data = [
    ("COC(=O)CC1(NC(=O)c2sc(Cl)c(Br)c2C)CC1", "LogP", "3.04^[a]"),
    ("CCOC(=O)CNC(=O)c1sc(Br)c(I)c1C", "LogP", "3.09^[a]"),
    ("O=C(CNC(=O)c1sc(Br)c(Br)c1F)SCc1ccccc1", "LogP", "4.15^[a]"),
    ("CCOC(=O)CNC(=S)c1sc(Cl)c(Cl)c1Br", "LogP", "4.61^[a]"),
    ("CCOC(=O)C(CC(N)=O)NC(=O)c1sc(Br)c(Br)c1F (stereo not drawn)", "LogP", "2.17^[a]"),
]

Query: # input compound: `CCOC(=O)C1(NC(=O)c2sc(Br)c(I)c2C)CCC1` ; wanted: its LogP
Reply: 3.77^[a]

Query: # input compound: CCOC(=O)C(NC(=O)c1sc(Cl)c(Br)c1C)C(C)C (stereo not drawn) ; wanted: its LogP
Reply: 4.30^[a]

Query: # input compound: CCOC(=O)C(CCSC)NC(=O)c1sc(Br)c(Cl)c1C (stereo not drawn) ; wanted: its LogP
Reply: 3.94^[a]

Query: # input compound: Cc1c(C(=O)NC(C#N)c2ccccc2)sc(Br)c1Cl (stereo not drawn) ; wanted: its LogP
Reply: 3.81^[a]

Query: # input compound: CCOC(=O)C(CC(N)=O)NC(=O)c1sc(Br)c(Cl)c1C (stereo not drawn) ; wanted: its LogP
Reply: 2.22^[a]

---

LogP values, listed per item
# TEST_NAME: Log P by HPLC on reversed phase columns (EEC directive 79/831 Annex V.A8)
# Assay type: physicochemical
# SETTINGS: method [a]: LC-UV, acidic range, 0.1% formic acid in water and acetonitrile

Example compounds with recorded LogP:
# COMPOUND, QUANTITY_KIND, VALUE_MEASURED
data = [
    ("N#Cc1c(Cl)sc(C(=O)O)c1Cl", "LogP", "1.59^[a]"),
    ("CCOC(=O)c1cc(C#N)c(Cl)s1", "LogP", "3.01^[a]"),
    ("CCOC(=O)C(C)(C)NC(=O)C(C)(C)NC(=O)c1sc(Cl)c(Br)c1Br", "LogP", "3.94^[a]"),
]

Query: # input compound: `Cc1c(C(=O)O)sc(Br)c1C#N` ; wanted: its LogP
Reply: 2.03^[a]

Query: # input compound: `O=C(O)c1sc(Br)c(C(F)F)c1Br` ; wanted: its LogP
Reply: 2.26^[a]

---

LogP values, listed per item
# TEST_NAME: Log P by HPLC on reversed phase columns (EEC directive 79/831 Annex V.A8)
# Assay type: physicochemical
# SETTINGS: method [a]

Example molecules with recorded LogP:
# MOLECULE, LogP
data = [
    ("O=C(NC(C(=O)OC1CCC1)C1CC1)c1sc(Br)c(Br)c1F (racemic)", "4.59^[a]"),
    ("COC(=O)C1(NC(=O)c2sc(Br)c(Br)c2F)CC1", "2.09^[a]"),
    ("CCOC(=O)C1(NC(=O)c2sc(Cl)c(C#N)c2Br)CC1", "2.69^[a]"),
    ("COC(=O)C1(NC(=O)c2sc(Cl)c(Cl)c2Br)CC(C)(C)C1", "4.50^[a]"),
    ("COC(=O)C1(NC(=O)c2sc(Br)c(Br)c2Cl)CCC1", "3.75^[a]"),
]

Query: # input molecule: O=C(NC(C(=O)OCc1ccccc1)C1CC1)c1sc(Br)c(Br)c1Cl (stereo not shown) ; wanted: its LogP
Reply: 5.07^[a]

Query: # input molecule: COC(=O)C(NC(=O)c1sc(Cl)c(Cl)c1I)C1CC1 (stereo not shown) ; wanted: its LogP
Reply: 3.84^[a]

---

LogP values, listed per item
# TEST_NAME: Log P by HPLC on reversed phase columns (EEC directive 79/831 Annex V.A8)
# Type: physicochemical
# SETTINGS: method [a]

Example compounds with recorded LogP:
# COMPOUND, LogP
data = [
    ("O=C(NC(C(=O)OCc1ccccc1)C1CC1)c1sc(Br)c(Br)c1F (stereo not shown)", "4.63^[a]"),
    ("CCOC(=O)C1(NC(=O)c2sc(C#N)c(Br)c2C)CCC1", "3.07^[a]"),
    ("CCOC(=O)C(CC(C)C)NC(=O)c1sc(Cl)c(Br)c1Cl (stereo not shown)", "5.20^[a]"),
    ("CCOC(=O)C(CSC)NC(=O)c1sc(Br)c(Br)c1Cl (stereo not shown)", "4.32^[a]"),
    ("N#CNC(=O)CNC(=O)c1sc(Br)c(Br)c1F", "2.17^[a]"),
]

Query: # input compound: `CCOC(=O)C(NC(=O)c1sc(Br)c(Br)c1C#N)C(=O)OCC` ; wanted: its LogP
Reply: 3.39^[a]

Query: # input compound: `O=C(NC1(C(=O)OCc2ccccc2)CCC1)c1sc(Br)c(Br)c1Cl` ; wanted: its LogP
Reply: 5.00^[a]

Query: # input compound: `CCOC(=O)CNC(=O)c1sc(C)c(Cl)c1F` ; wanted: its LogP
Reply: 2.54^[a]

Query: # input compound: COC(=O)C(C1CC1)N(O)C(=O)c1sc(Cl)c(Cl)c1Br (stereo not shown) ; wanted: its LogP
Reply: 3.05^[a]

Query: # input compound: `N#Cc1sc(C(=O)NCC(N)=O)c(Cl)c1Cl` ; wanted: its LogP
Reply: 1.48^[a]

Query: # input compound: `CCOC(=O)C1(NC(=O)c2sc(Cl)c(Cl)c2I)CCC1` ; wanted: its LogP
Reply: 4.12^[a]

Query: # input compound: `COC(=O)CNC(=O)c1sc(C#N)c(Br)c1Cl` ; wanted: its LogP
Reply: 2.24^[a]

---

# System: Colletotrichum lindemuthianum
# TEST_NAME: Example O: Colletotrichum lindemuthianum in vitro cell test, formula (II)
# Type: cell-based
# SETTINGS: 144 h, 10 ppm of active ingredient, 6 days incubation, read-out: efficacy (inhibition of fungal growth; no direct activity)
inhibition at 10 ppm values, listed per item

Example compounds with recorded inhibition at 10 ppm:
# COMPOUND, inhibition at 10 ppm
rows = [
    ("Cc1c(C(=O)O)sc(C#N)c1Br [II.042]", "≤ 30%"),
    ("COC(=O)c1sc(Cl)c(C#N)c1C [II.028]", "≤ 30%"),
    ("COC(=O)c1sc(Cl)c(Cl)c1C#N [II.085]", "≤ 30%"),
]

Query: Missing value: inhibition at 10 ppm, Colletotrichum lindemuthianum, entry COC(=O)c1cc(Cl)c(C#N)s1 [II.046] . Fill in?
Reply: ≤ 30%

---

LogP values, listed per item
# TEST_NAME: Log P by HPLC on reversed phase columns (EEC directive 79/831 Annex V.A8)
# Type: physicochemical
# SETTINGS: method [a]

Example compounds with recorded LogP:
# COMPOUND, VALUE_MEASURED
data = [
    ("O=C(CNC(=O)c1sc(Br)c(Br)c1F)OCC1CC1", "3.39^[a]"),
    ("O=C(NC1(C(=O)OC2CCC2)CCC1)c1sc(Br)c(Br)c1F", "4.47^[a]"),
    ("N#CCNC(=O)c1sc(Cl)c(Cl)c1I", "2.72^[a]"),
    ("Cc1c(C(=O)NC2(C(=O)O)CC2)sc(Cl)c1Br", "2.21^[a]"),
    ("CCOC(=O)[C@H](CO)NC(=O)c1sc(C#N)c(Cl)c1Cl", "2.26^[a]"),
]

Query: # input compound: CCOC(=O)C(COC)NC(=O)c1sc(C#N)c(Br)c1C (stereo not shown) ; wanted: its LogP
Reply: 2.80^[a]

Query: # input compound: `NC(=S)C1(NC(=O)c2sc(Br)c(Br)c2Cl)CC1` ; wanted: its LogP
Reply: 2.80^[a]

Query: # input compound: `COC(=O)C1(NC(=O)c2sc(C#N)c(Br)c2Cl)CC1` ; wanted: its LogP
Reply: 2.44^[a]

Query: # input compound: `COC(=O)C1(NC(=O)c2sc(Cl)c(Br)c2C)CC1` ; wanted: its LogP
Reply: 2.80^[a]

Query: # input compound: `CCOC(=O)CN(OC)C(=O)c1sc(C#N)c(Cl)c1Cl` ; wanted: its LogP
Reply: 3.06^[a]
